Taken from patent US10040766B2.

- Tested on: lung tumor cell line A549
- assay_procedure: Inhibition of tumor cell growth, A549
- Format: cell-based
- study_conditions: Homo sapiens
Some compounds, each annotated with its measured pIC50.
Schema: pIC50 number; meaning minus log10 of the concentration expressed in molar units.

Look up pIC50 for this compound: Cc1ccc(S(=O)(=O)Nc2ccc(-c3cccnc3)c3cccnc23)cc1 [Compound 6] 5.22

Look up pIC50 for this compound: O=S(=O)(Nc1ccc(-c2cccnc2)c2cccnc12)c1cccc(C(F)(F)F)c1 [Compound 24] 6.04

Look up pIC50 for this compound: O=S(=O)(Nc1ccc(-c2ccncc2)c2cccnc12)c1cccnc1 [Compound 30] 5.23

Look up pIC50 for this compound: Cc1ccc(S(=O)(=O)Nc2ccc(-c3cc4ccccc4s3)c3cccnc23)cc1 [Compound 8] 6.41

Look up pIC50 for this compound: Cc1ccc(S(=O)(=O)Nc2ccc(-c3ccccc3)c3cccnc23)cc1 [Compound 4] 5.63

Look up pIC50 for this compound: Cc1ccc(S(=O)(=O)Nc2ccc(-c3ccco3)c3cccnc23)cc1 [Compound 5] 4.58

Look up pIC50 for this compound: O=S(=O)(Nc1ccc(-c2cccnc2)c2cccnc12)c1cccnc1 [Compound 25] 5.28

Look up pIC50 for this compound: Cc1ccc(S(=O)(=O)Nc2ccc(-c3ccsc3)c3cccnc23)cc1 [Compound 7] 5.63
